- assay.conditions: MDCK
Positions of bridges follow the written chain, without caps; N, C: chain ends. Non-standard residues stand in square brackets, D forms with d. Residues, ends and D or L forms follow the SMILES beside them. NMeF = CN[C@@H](Cc1ccccc1)C(=O)O; NMeC = CN[C@@H](CS)C(=O)O; NMeA = CN[C@@H](C)C(=O)O; dAbu = CC[C@@H](N)C(=O)O; dNMeA = CN[C@H](C)C(=O)O; Abu = CC[C@H](N)C(=O)O; Nleu = CC(C)CNCC(=O)O
Catalogue of Papp values
Reply with just the number (in ×10⁻⁶ cm/s).

These recorded examples may help you get a feel for the data.
compound="CC(C)C[C@@H]1NC(=O)[C@H](Cc2ccccc2)N(C)C(=O)[C@H]2CCCN2C(=O)[C@H](CC(C)C)NC(=O)[C@H](C)N(C)C(=O)[C@H](CC(C)C)NC(=O)[C@H](Cc2ccccc2)N(C)C(=O)[C@H]2CCCN2C(=O)[C@H](CC(C)C)NC(=O)[C@H](C)N(C)C1=O [compound 1] (cyclo(L[NMeA]L[dP][NMeF]L[NMeA]L[dP][NMeF]))" endpoint_name=Papp meas_value=11.4
compound="CCOC(=O)[C@@H]1CSCC(=O)N[C@H](CC)C(=O)N(C)[C@@H](C)C(=O)N[C@@H](CC(C)C)C(=O)N(C)[C@H](C)C(=O)N(CC(C)C)CC(=O)N[C@@H](CC(C)C)C(=O)N(C)[C@H](C)C(=O)N[C@@H](CC(C)C)C(=O)N1C [A1-6L] ({CH2CO}-[dAbu][NMeA]L[dNMeA][Nleu]L[dNMeA]L[NMeC]-OEt; thioether N-9)" endpoint_name=Papp meas_value=0.9

// below: Papp requested for another compound
For the compound CCOC(=O)[C@@H]1CSCC(=O)N[C@@H](CC)C(=O)N(C)[C@@H](C)C(=O)N[C@@H](CC(C)C)C(=O)N(C)[C@H](C)C(=O)N(CC(C)C)CC(=O)N[C@H](CC(C)C)C(=O)N(C)[C@H](C)C(=O)N[C@@H](CC(C)C)C(=O)N1C [A1-1L] ({CH2CO}-[Abu][NMeA]L[dNMeA][Nleu][dL][dNMeA]L[NMeC]-OEt; thioether N-9) , what Papp is on record? 0.9

Values compiled from paper PMC10885153.
